The following molecules are shown together with reported growth values.
# System: CCRF-CEM leukemia
# EXPERIMENT: NCI-60 one-dose screen, 48 h (100 = growth as untreated, 0 = no growth, -100 = all killed)
# MEASUREMENT SETUP: 10 µM
This is part of a sample that, as a whole, favours compounds with a hit. Of some 83,000 tested, about 20% had one in any assay.
Give the value, in units of %, as a plain number.

O=C1Nc2ccc(Cl)cc2/C1=C/c1ccc(OCc2ccccn2)cc1 = 83.2
COc1ccc(/C(CSc2nnc(-c3c[nH]c4ccccc34)n2-c2ccccc2)=N/O)cc1 = 16.5
O=C(c1ccc(O)cc1)C1[C@H](c2ccc(Br)cc2)[C@@H](c2ccccc2)NC12C(=O)Nc1ccccc12 (stereo partly drawn) = 36.3
CN1CCc2c(sc3ncnc(N/N=C/c4cn(-c5ccccc5)nc4-c4ccc(Br)cc4)c23)C1 = 15.7
CC(=O)OC[C@@]1(C)C2CC[C@]3(C)C(CC=C4C5CC(C)(C)CC[C@]5(C(=O)Nc5ccccc5)CC[C@]43C)[C@@]2(C)C[C@@H](OC(C)=O)[C@@H]1OC(C)=O (stereo partly drawn) = 29.7

Requested read-out: growth. Entry: `CCN1CCN(Cc2ccc(C(=O)Nc3cccc(-c4cn(-c5ccc6oc(=O)ccc6c5)nn4)c3)cc2C(F)(F)F)CC1`
-21

Next: `COc1ccc(OC)c(/C=N/NC(=O)c2ccc3nc(-c4ccc(Cl)cc4)[nH]c3c2)c1`
43.9

Next: `COc1cc(OC(F)(F)F)ccc1C(=O)Nc1sc2c(c1C#N)CCC(=O)C2`
18.3

====

# Test system: RPMI-8226 leukemia
# EXPERIMENT: NCI-60 one-dose screen, 48 h (100 = growth as untreated, 0 = no growth, -100 = all killed)
# MEASUREMENT SETUP: 10 µM
About 83,000 compounds went through this panel and 20% of them were active in at least one assay; those are over-represented in the sample as a whole.
MEASURE NAME: growth (%)
Give the value, in units of %, as a plain number.

C=CC(=O)Nc1nc(-c2cccc(NS(=O)(=O)c3cccc4c(N(C)C)cccc34)c2)cs1 = -36.2
CCCCCc1ccc(S(=O)(=O)N(C(C)=O)c2cc(-c3csc(N(C)C(C)=O)n3)ccc2N2CCN(C)CC2)cc1 = -24.8
O=c1cc(-c2ccccc2)oc2cc(OCCCNCc3ccccc3)cc(O)c12 = -26.8

Requested read-out: growth. Entry: `Cc1cc(=O)oc2cc(OCCCCOc3ccc(/C=C/C(=O)Nc4ccccc4[N+](=O)[O-])cc3)ccc12`
108

Next: `CC1=C2C(=C[C@@](C)(CO)[C@@H]2O)/C(=N\N)[C@](C)(O)C12CC2`
56.2

====

The following molecules are shown together with reported growth values.
# System: KM12 colon
# EXPERIMENT: NCI-60 one-dose screen, 48 h (100 = growth as untreated, 0 = no growth, -100 = all killed)
# MEASUREMENT SETUP: 10 µM
This is part of a sample that, as a whole, favours compounds with a hit. Of some 83,000 tested, about 20% had one in any assay. Active and inactive are the calls of the source. The calls were made as follows: active = growth percent below 10; inactive = the rest.

COc1ccc(CN2[C@H](C(=O)NCCCCCCC(=O)NO)Cc3c([nH]c4ccccc34)[C@H]2C2CC2)cc1 = 12.5% (inactive)
O=C1Nc2ccc(F)cc2/C1=C/c1cccc(OCc2ccccc2)c1 = 19% (inactive)
C#CCNC(=O)[C@]12CCC(C)(C)C[C@H]1C1=CC[C@@H]3[C@@](C)(CCC#N)[C@H](C(=C)C)CC[C@@]3(C)[C@]1(C)CC2 = 54.8% (inactive)

Now for the molecule whose growth we want.
Requested read-out: growth. Entry: `Cn1cc(-c2cc(N)n3nc(-c4c[nH]c5ccc(Br)cc45)cc3n2)c2cc(Br)cnc21`
-73.1% (active)
